Where do the numbers come from? From patent US11760761B2.

molecular target: PD-1/PD-L1 interaction (Homo sapiens (Human), UniProt Q9NZQ7); experiment: PD-1/PD-L1 NFAT Reporter Assay (Jurkat T cells / PD-L1 expressing CHO cells co-culture); conditions: co-culture 6 hrs at 37° C., luciferase
Sequence (Q9NZQ7 19-290): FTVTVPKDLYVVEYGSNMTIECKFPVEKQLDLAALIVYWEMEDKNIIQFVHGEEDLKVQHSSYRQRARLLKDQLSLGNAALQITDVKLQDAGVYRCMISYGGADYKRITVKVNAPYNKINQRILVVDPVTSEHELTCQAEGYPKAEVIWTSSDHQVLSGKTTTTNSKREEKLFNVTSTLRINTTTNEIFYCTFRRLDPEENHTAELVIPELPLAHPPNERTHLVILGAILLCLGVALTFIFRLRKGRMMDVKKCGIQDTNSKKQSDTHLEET
parameter-measured: EC50

compound | target-desc | EC50
COc1cc(-c2cccc(-c3cccc(-c4cnc(CN5CC6(CCC(=O)N6)C5)c(OC)n4)c3Cl)c2Cl)cc2c1C[C@@H](N1CC(O)C1)C2 (single isomer, unassigned) | PD-1/PD-L1 interaction (Homo sapiens (Human), UniProt Q9NZQ7) | 10 to 100 nM
COc1nc(-c2cccc(-c3cccc(-c4cc5c(c(OC)n4)[C@@H](NC[C@@H]4CCC(=O)N4)CC5)c3Cl)c2Cl)ccc1CN1CC2(CCC(=O)N2)C1 | PD-1/PD-L1 interaction (Homo sapiens (Human), UniProt Q9NZQ7) | ≤ 10 nM

Task: Entry COc1cc(-c2cccc(-c3cccc(-c4cnc(CN5CC6(CCC(=O)N6)C5)c(OC)n4)c3Cl)c2Cl)cc2c1[C@H](N1CC(C(=O)O)C1)CC2 (single isomer, unassigned) : reported EC50 = ?
Output: 1000 to 10000 nM

Task: Entry COc1nc(-c2cccc(-c3cccc(-c4cc5c(c(OC)n4)[C@@H](N4CC6(CN(C(C)=O)C6)C4)CC5)c3Cl)c2Cl)cnc1CN1CC2(C1)CN(C(C)=O)C2 (single isomer, unassigned) : reported EC50 = ?
Output: > 10000 nM

Task: Entry CCOc1nc(-c2cccc(-c3cccc(-c4cnc(CN5CC6(CCC(=O)N6)C5)c(OC)n4)c3Cl)c2Cl)cc2c1C(NC[C@@H]1CCC(=O)N1)CC2 (some centres unmarked) : reported EC50 = ?
Output: 10 to 100 nM

----------
target: PD-1/PD-L1 interaction (Homo sapiens (Human)); assay: PD-1/PD-L1 NFAT Reporter Assay (Jurkat T cells / PD-L1 expressing CHO cells co-culture); details: co-culture 6 hrs at 37° C., luciferase
pEC50: −log10 of the molar value.
parameter-measured: pEC50

These recorded examples may help you get a feel for the data.
compound | pEC50
CCOC(=O)C1CN([C@H]2CCc3cc(-c4cccc(-c5cccc(-c6cnc(CN7CC(O)C7)c(OC)n6)c5Cl)c4Cl)nc(OC)c32)C1 [Compound G-1] | 7.00 to 8.00
COc1nc(-c2cccc(-c3cccc(-c4cc5c(c(OC)n4)[C@H](N4CC(O)C4)CC5)c3Cl)c2Cl)cnc1CN1CC2(CCC(=O)N2)C1 (single isomer, unassigned) [Compound C-6] | 6.00 to 7.00
COc1nc(-c2cccc(-c3cccc(-c4cc5c(c(OC)n4)C(NC[C@H]4CCC(=O)N4)CC5)c3Cl)c2Cl)cnc1CN1CC2(CCC(=O)N2)C1 (some centres unmarked) [Compound C-7] | 7.00 to 8.00
COc1nc(-c2cccc(-c3cccc(-c4cc5c(c(OC)n4)CCN(C[C@@H]4CCC(=O)N4)C5)c3Cl)c2Cl)cnc1CN1CC2(CCC(=O)N2)C1 [Compound K-1] | 7.00 to 8.00
COc1cc(-c2cccc(-c3cccc(-c4cnc(CN5CC6(CCC(=O)N6)C5)c(OC)n4)c3Cl)c2Cl)cc2c1[C@@H](N1CC(O)C1)CC2 (single isomer, unassigned) [Compound A-5] | 6.00 to 7.00
COc1nc(-c2cccc(-c3cccc(-c4cc5c(c(OC)n4)C(N4CCC(C(=O)O)CC4)CC5)c3Cl)c2Cl)cnc1CN1CC(O)C1 (centres unmarked) [Compound F-3] | 7.00 to 8.00

Task: Entry COc1nc(-c2cccc(-c3cccc(-c4cc5c(c(OC)n4)[C@@H](NC[C@@H]4CCC(=O)N4)CC5)c3Cl)c2Cl)cnc1CN1CC2(CCC(=O)N2)C1 [Compound C-1] : reported pEC50 = ?
Output: ≥ 8.00

Task: Entry CCOC(=O)CN[C@@H]1CCc2cc(-c3cccc(-c4cccc(-c5cnc(CN6CC7(CCC(=O)N7)C6)c(OC)n5)c4Cl)c3Cl)cc(OC)c21 (single isomer, unassigned) [Compound A-2] : reported pEC50 = ?
Output: 6.00 to 7.00
